Reference source: PubChem BioAssay AID1259245

Readings of compound max-min signal for the listed molecules
Target: Voltage-dependent calcium channel gamma-2 subunit (Mus musculus) + Glutamate receptor 2 (Rattus norvegicus) (UniProt O88602+P19491)
Sequence (O88602 whole entry, looked up): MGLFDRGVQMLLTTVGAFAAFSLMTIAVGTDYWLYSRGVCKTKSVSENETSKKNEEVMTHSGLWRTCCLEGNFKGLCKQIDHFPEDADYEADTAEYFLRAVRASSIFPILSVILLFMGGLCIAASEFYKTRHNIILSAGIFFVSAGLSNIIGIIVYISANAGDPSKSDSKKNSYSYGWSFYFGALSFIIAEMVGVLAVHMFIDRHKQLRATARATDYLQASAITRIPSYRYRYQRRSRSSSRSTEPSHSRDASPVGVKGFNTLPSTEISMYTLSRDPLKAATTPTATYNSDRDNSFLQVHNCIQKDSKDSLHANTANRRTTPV
Sequence (P19491 whole entry, looked up): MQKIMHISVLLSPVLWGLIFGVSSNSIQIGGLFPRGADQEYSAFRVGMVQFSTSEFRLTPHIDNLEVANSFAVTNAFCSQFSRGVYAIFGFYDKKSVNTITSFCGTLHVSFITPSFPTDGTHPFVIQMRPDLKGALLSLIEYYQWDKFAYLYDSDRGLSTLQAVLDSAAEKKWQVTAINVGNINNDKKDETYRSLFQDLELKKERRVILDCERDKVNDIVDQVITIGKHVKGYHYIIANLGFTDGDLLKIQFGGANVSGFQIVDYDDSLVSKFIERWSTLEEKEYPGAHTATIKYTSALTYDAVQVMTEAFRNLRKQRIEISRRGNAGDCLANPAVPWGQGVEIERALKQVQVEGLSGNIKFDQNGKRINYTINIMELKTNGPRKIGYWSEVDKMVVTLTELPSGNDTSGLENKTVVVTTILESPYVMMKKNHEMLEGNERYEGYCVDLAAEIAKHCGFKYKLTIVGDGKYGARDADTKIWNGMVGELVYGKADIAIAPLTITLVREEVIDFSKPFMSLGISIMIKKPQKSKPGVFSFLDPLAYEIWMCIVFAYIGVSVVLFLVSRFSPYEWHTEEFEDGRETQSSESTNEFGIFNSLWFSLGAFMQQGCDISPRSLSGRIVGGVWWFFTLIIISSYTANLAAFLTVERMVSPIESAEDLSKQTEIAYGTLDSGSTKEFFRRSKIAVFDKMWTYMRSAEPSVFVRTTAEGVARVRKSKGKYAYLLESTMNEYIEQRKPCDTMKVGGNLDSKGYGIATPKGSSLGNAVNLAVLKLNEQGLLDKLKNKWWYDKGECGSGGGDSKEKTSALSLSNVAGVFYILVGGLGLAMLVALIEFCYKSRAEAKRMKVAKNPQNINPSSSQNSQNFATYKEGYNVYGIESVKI
Experiment: modulators of GluA2-stargazin AMPA receptor complexes, primary screen, cell-based, membrane potential dye (AID 1259245)
Conditions: HEK293 GluA2+stargazin, membrane potential dye (FDSS), glutamate EC50, at 30 µM, hits were called plate by plate, in both directions; compound-alone response (agonism)
Screen size: about 40,000 compounds; about 1,400 (3.5%) were called active. The full list was thinned out, with actives kept by preference.
Just the number.

Solved entries:
O=C(NC1CCCCCC1)c1ccc(S(=O)(=O)c2ccccc2)nc1 = 0.0387
CCCc1ccc(C(=O)NCC(C)(O)COC)cc1 (stereo not given) = 0.117
COc1ccc(NC(C)=O)cc1NC(=O)c1ccc(=O)[nH]n1 = 0.159
Cc1cc(C)c(NC(=O)CN2CCN(c3nccn3-c3ccccc3F)CC2)c(C)c1 = 0.0429
Cc1cc(C)n(CCNC(=O)/C=C/c2cccs2)n1 = 0.131

[ask] Consider the molecule shown here: `CN1C(=O)Cc2cc(NC(=O)NC(c3ccccc3)c3ccccc3)ccc21` What is its recorded compound max-min signal?
[reply] 0.121

[ask] Could you share which compound max-min signal value was measured for `O=C(NCCn1ncc2c(N3CCN(c4ccccc4)CC3)ncnc21)c1cccs1` ?
[reply] 0.0478

[ask] State the recorded compound max-min signal for this entry: `Cc1cc(NC(=O)c2ccc3c(c2)OCO3)n(-c2nc3c(cnn3-c3cccc(Cl)c3)c(=O)[nH]2)n1`
[reply] 0.15

[ask] Which compound max-min signal value is on record for `COc1ccc(Cl)c2sc(N(CCCN3CCOCC3)C(=O)c3ccno3)nc12` ?
[reply] 0.17

[ask] Quick one: compound max-min signal of `COc1ccc(OC)c2sc(N(CCN3CCOCC3)C(=O)c3cccs3)nc12` ?
[reply] 0.221

[ask] Give the measured compound max-min signal of CCOc1ccc(CC(=O)Nc2nn(C)c3c2C(C)CC(=O)N3)cc1 (stereo not given) .
[reply] 0.129

[ask] # input molecule: `COc1ccc2nc(N(CCN3CCOCC3)C(=O)c3cc4cc([N+](=O)[O-])ccc4s3)sc2c1` ; wanted: its compound max-min signal
[reply] 0.0573

[ask] Requested field: compound max-min signal. Item: `Cc1nc(-c2ccccc2)sc1C(=O)NCCOc1ccc2nnc(-c3ccccc3)n2n1`
[reply] 0.0398

[ask] Endpoint output: compound max-min signal of `COc1cn(CC(=O)Nc2ccc(NC(C)=O)cc2)c(CSc2ncccn2)cc1=O` . Value?
[reply] 0.0519

[ask] compound max-min signal for COCC(C)(O)CNC(=O)Cc1cccc(C)c1 (stereo not given) ?
[reply] 0.0936

----------
Biological target: Voltage-dependent calcium channel gamma-2 subunit (Mus musculus) + Glutamate receptor 2 (Rattus norvegicus) (UniProt O88602+P19491)
Experiment: modulators of GluA2-stargazin AMPA receptor complexes, primary screen, cell-based, membrane potential dye (AID 1259245)
Details: HEK293 GluA2+stargazin, membrane potential dye (FDSS), glutamate EC50, at 30 µM, hits were called plate by plate, in both directions
Hit rate of the full screen: of about 40,000 compounds, about 1,400 (3.5%) were called active. The list comes from a sample in which actives are over-represented; it also holds close analogues and randomly drawn compounds.
Quantity Name: glutamate response, % of max (%)
The response must be a number in % with no trailing unit.

[ask] Reported glutamate response, % of max, compound `Cc1ccccc1C(=O)Nn1cnc2c(cnn2C(C)(C)C)c1=O` : ____
[reply] 31.3

[ask] Which glutamate response, % of max is reported for this compound? `COCC(=O)Nn1cnc2c(cnn2C(C)(C)C)c1=O`
[reply] -2.09

[ask] What measured glutamate response, % of max goes with `Cc1ccc(C(=O)Nc2ccc(SCC(=O)NCc3ccc4c(c3)OCO4)nn2)cc1` ?
[reply] 27.8

[ask] What does the record list as glutamate response, % of max for `CCOc1ccc(-c2ccc(N3CCN(C(=O)c4ccc5nsnc5c4)CC3)nn2)cc1` ?
[reply] 15.3

[ask] Which glutamate response, % of max is reported for this compound? `Cc1cc(C)cc(-n2c(SCC#N)nc3cc(C(=O)NC4CCCC4)ccc3c2=O)c1`
[reply] 50.2

[ask] Need glutamate response, % of max of `COc1ccc(Cl)cc1NC(=O)Nc1cc(N2CCCS2(=O)=O)ccc1C` , thanks.
[reply] 36.6

[ask] Quick check: glutamate response, % of max of `CCOc1ccccc1C(=O)N1CCN(c2ccc(-c3ccccn3)nn2)CC1` ?
[reply] 31.9

[ask] Given the compound `CCOC(=O)N1CCc2c(sc(NC(=O)c3ccccc3Cl)c2-c2nc3ccccc3s2)C1` , what is its reported glutamate response, % of max?
[reply] 43.3

[ask] For the compound shown here, `Cc1cc([N+](=O)[O-])ccc1NC(=O)C(=O)NCc1ccncc1` , give the reported glutamate response, % of max.
[reply] 47.7

[ask] Using the record for `CC(C)Oc1ccc(C(=O)Nc2ccc3oc(=O)ccc3c2)cc1` , report its glutamate response, % of max.
[reply] 41.9

[ask] So what does the record say about glutamate response, % of max for `Cc1ccc(NC(=O)c2ccc(S(=O)(=O)N3CCCC3)cc2)c(C(=O)c2ccccc2)c1` ?
[reply] 44

[ask] Which glutamate response, % of max value is on record for COc1ccc(-n2nnnc2SC(C)C(=O)Nc2ccccc2Cl)cc1 (stereo not drawn) ?
[reply] 29.7

[ask] Report glutamate response, % of max for `COc1ccc(CCNC(=O)CCc2sc(C)nc2-c2cccs2)cc1` please.
[reply] 19.1
